# tgt: Transient receptor potential cation channel subfamily V member 1 (Rattus norvegicus)
# Sequence (O35433 whole entry): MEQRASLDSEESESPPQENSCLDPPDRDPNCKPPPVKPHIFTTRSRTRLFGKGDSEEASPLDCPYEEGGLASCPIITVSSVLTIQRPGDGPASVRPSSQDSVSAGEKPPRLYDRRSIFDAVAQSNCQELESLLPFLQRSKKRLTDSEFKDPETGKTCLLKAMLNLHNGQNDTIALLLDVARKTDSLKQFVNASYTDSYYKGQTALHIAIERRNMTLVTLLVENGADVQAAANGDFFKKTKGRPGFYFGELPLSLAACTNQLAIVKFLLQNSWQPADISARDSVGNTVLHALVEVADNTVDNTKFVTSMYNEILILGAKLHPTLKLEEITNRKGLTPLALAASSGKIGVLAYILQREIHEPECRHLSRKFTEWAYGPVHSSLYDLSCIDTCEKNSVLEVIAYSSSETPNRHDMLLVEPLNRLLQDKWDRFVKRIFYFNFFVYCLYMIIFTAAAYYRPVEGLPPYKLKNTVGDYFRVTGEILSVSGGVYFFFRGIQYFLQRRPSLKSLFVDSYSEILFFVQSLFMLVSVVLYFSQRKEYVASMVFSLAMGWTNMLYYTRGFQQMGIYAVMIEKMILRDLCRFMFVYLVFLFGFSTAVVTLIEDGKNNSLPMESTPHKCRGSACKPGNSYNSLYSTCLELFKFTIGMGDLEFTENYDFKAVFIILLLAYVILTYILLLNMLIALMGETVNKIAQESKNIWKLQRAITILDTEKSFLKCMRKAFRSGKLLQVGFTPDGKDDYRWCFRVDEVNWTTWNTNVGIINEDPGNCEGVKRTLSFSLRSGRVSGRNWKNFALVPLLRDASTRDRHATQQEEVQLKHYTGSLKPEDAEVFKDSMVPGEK
# method: Antagonist activity at rat TRPV1 expressed in CHO cells assessed as inhibition of pH 5 acid-induced calcium influx
# Type: functional, cell-based
value.type: pIC50
Kindly note that pIC50 refers to -log10 of the concentration in mol/L and answer with the value alone.

Here are 4 compounds together with their reported answers.
| mol | pIC50 |
| --- | --- |
| Nc1nc2c(Oc3cc(-c4ccc(C(F)(F)F)nc4N[C@@H]4CCOC4)ncn3)cccc2[nH]c1=O | 9.10 |
| COC[C@H](C)Nc1nc(Oc2cccc3[nH]c(=O)c(N)nc23)cc(-c2ccc(C(F)(F)F)nc2N)n1 | 8.19 |
| Nc1nc2c(Oc3cc(-c4ccc(C(F)(F)F)nc4NCCN4CCOCC4)ncn3)cccc2[nH]c1=O | 7.73 |
| Nc1nc(Oc2cccc3[nH]c(=O)c(N)nc23)cc(-c2ccc(C(F)(F)F)cc2)n1 | 8.59 |

Shift focus to the following entry.
input: Looking for the measured pIC50 of COCCNc1nc(C(F)(F)F)ccc1-c1cc(Oc2cccc3[nH]c(=O)c(N)nc23)ncn1 , can you help?
output: 8.89
